# target-or-test-system: Protein cereblon/NAD-dependent protein deacylase sirtuin-6 (Homo sapiens, UniProt Q8N6T7+Q96SW2)
# Sequence (Q8N6T7 2-355 limits assumed): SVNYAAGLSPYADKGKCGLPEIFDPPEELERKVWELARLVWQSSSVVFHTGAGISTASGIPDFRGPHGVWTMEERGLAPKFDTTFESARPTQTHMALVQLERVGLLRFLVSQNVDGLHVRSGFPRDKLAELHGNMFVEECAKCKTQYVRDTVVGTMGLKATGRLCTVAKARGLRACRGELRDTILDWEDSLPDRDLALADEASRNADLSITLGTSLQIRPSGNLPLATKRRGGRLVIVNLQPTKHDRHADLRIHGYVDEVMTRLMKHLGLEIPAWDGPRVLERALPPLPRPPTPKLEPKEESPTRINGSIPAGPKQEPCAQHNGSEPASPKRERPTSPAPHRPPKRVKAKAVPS
# Sequence (Q96SW2 whole entry partner): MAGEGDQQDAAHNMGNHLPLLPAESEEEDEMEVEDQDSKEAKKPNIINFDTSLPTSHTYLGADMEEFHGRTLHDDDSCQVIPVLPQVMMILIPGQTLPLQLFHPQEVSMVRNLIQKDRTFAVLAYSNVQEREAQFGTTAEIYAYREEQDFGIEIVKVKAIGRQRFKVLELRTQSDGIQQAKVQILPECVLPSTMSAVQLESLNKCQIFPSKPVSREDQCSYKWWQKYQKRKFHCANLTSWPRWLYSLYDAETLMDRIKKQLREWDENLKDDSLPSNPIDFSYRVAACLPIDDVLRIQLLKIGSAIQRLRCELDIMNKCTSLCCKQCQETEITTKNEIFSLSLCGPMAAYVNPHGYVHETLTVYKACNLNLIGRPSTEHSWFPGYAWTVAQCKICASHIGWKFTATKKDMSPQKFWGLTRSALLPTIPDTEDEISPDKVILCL
# experiment-summary: PROTAC activity at CRBN/SIRT6 in human SK-HEP1 cells assessed as induction of SIRT6 degradation at 200 nM incubated for 36 hrs by In-Cell ELISA relative to control
# Assay type: cell-based
// values below are reported Activity
metric-name: Activity (%)

>>> recorded_measurement("Nc1cc(N2CCN(CC3CCN(c4ccc5c(c4)C(=O)N(C4CCC(=O)NC4=O)C5=O)CC3)CC2)ccc1[N+](=O)[O-] (configuration not stated)")
85.9
>>> recorded_measurement("Nc1cc(N2CCN(CCNCC3CCN(c4cc5c(cc4F)C(=O)N(C4CCC(=O)NC4=O)C5=O)C3)CC2)ccc1[N+](=O)[O-] (configuration not stated)")
66.2
>>> recorded_measurement("Nc1cc(N2CCN(CCCC3CCN(c4ccc5c(c4)C(=O)N(C4CCC(=O)NC4=O)C5=O)CC3)CC2)ccc1[N+](=O)[O-] (configuration not stated)")
84.9
>>> recorded_measurement("Nc1cc(N2CCN(CCNCC3CCCN(c4cc5c(cc4F)C(=O)N(C4CCC(=O)NC4=O)C5=O)C3)CC2)ccc1[N+](=O)[O-] (configuration not stated)")
81.2
>>> recorded_measurement("Nc1cc(N2CCN(CC3CCN(c4cc5c(cc4F)C(=O)N(C4CCC(=O)NC4=O)C5=O)C3)CC2)ccc1[N+](=O)[O-] (configuration not stated)")
94.5
